Species: Homo sapiens
Measurement Notes: To identify inhibition of the IFN signalling (Jak-Stat) pathway via expression of an eGFP reporter gene under the control of an IFN-stimulated response element (ISRE) containing MxA promoter.
Assay type: functional
Parameters: scale not given: direction of the effect not stated beside the values
Assay Conditions: 30 µM
Endpoint Name: Percent Effect

The cases that follow already have their Percent Effect on record.
{"Compound": "Cc1ncsc1CN1C[C@@H]2COC[C@]2(COc2ccc(C#N)cn2)C1", "Observed": "-1.06%"}
{"Compound": "COc1ccccc1CC(=O)NS(=O)(=O)c1cncc(Br)c1", "Observed": "21.7%"}
{"Compound": "Cc1nnc(N2CC[C@H]3C[C@H](C(=O)N4CCOCC4)O[C@H]3C2)s1", "Observed": "-19.4%"}
{"Compound": "Cc1nc(C)n(CC2CCCCN2CC(=O)Nc2cccnc2)n1 (stereo unspecified)", "Observed": "-0.793%"}
{"Compound": "O=c1ccc(-c2cccs2)nn1CN1CCN(Cc2ccccc2)CC1", "Observed": "20.2%"}
{"Compound": "Cc1nnc(Nc2cccc(C3CCN(CCO)CC3)n2)s1", "Observed": "11.5%"}
{"Compound": "CC(C(=O)NCc1ccc(N2CCNC(=O)C2)cc1)n1cncn1 (stereo unspecified)", "Observed": "14.6%"}
{"Compound": "O=C(c1ccc[nH]1)N1CCCC2(CCN(c3ccsc3)C2=O)C1 (stereo unspecified)", "Observed": "4.99%"}
{"Compound": "CCc1nc(CNC(=O)Nc2ccc(C(=O)NC)cc2C)cs1", "Observed": "11.9%"}
{"Compound": "CC(C)c1nc(C(=O)N2CCOCC2CC(=O)c2ccco2)c[nH]1 (stereo unspecified)", "Observed": "-8.33%"}

Please examine the following record next.
Need Percent Effect, item CC(CNc1cncc(-n2cccn2)n1)N(C)c1ccccc1 (stereo unspecified) 51.6%
